// provenance: patent US12030903B2

# System: uninfected HEp-2 cells
# Assay Summary: HEp-2 CC50 (cytotoxicity in uninfected HEp-2 cells)
# Format: cell-based
# Experimental Conditions: 4 days, CellTiter Glo
Reported Endpoint: CC50

| Compound | Reported Measurement |
| --- | --- |
| CCOC(=O)[C@H](C)NP(=O)(OC[C@@]1(CF)O[C@@H](c2ccc3c(N)ncnn23)[C@H](O)[C@@H]1O)Oc1ccc(C(C)(C)C)cc1 (single isomer, unassigned) [Example 49] | > 100 µM |
| CCOC(=O)[C@H](C)NP(=O)(OC[C@@]1(CF)O[C@@H](c2ccc3c(N)ncnn23)[C@H](OC(C)=O)[C@@H]1OC(C)=O)Oc1ccccc1 (some centres unmarked) | > 100 µM |
| CCC(=O)O[C@H]1[C@H](c2ccc3c(N)ncnn23)O[C@](CF)(COP(=O)(N[C@@H](C)C(=O)OC2CCCCC2)Oc2ccccc2)[C@H]1OC(=O)CC (some centres unmarked) | 33 µM |
| C[C@H](NP(=O)(OC[C@@]1(CF)O[C@@H](c2ccc3c(N)ncnn23)[C@H](O)[C@@H]1O)Oc1ccccc1)C(=O)OCC(C)(C)C(F)(F)F (single isomer, unassigned) [Example 54] | > 100 µM |
| CC(=O)O[C@H]1[C@H](c2ccc3c(N)ncnn23)O[C@](CF)(COP(=O)(N[C@@H](C)C(=O)OC2CCCCC2)Oc2ccccc2)[C@H]1OC(C)=O (some centres unmarked) | > 50 µM |

###

# Assay Summary: Huh-7 CC50 (CellTiter Glo viability)
# Type: cell-based, Human
# Experimental Conditions: human, Huh7 hepatocarcinoma cells
Each entry below carries its recorded CC50 at 48 h.

| Molecule | CC50 at 48 h |
| --- | --- |
| CCCCCCOC(=O)[C@H](C)N[P@@](=O)(OC[C@@]1(CF)O[C@@H](c2ccc3c(N)ncnn23)[C@H](O)[C@@H]1O)Oc1ccccc1 (single isomer, unassigned) | > 25 µM |
| CC(C)OC(=O)[C@H](C)N[P@](=O)(OC[C@@]1(CF)O[C@@H](c2ccc3c(N)ncnn23)[C@H](OC(=O)C(C)C)[C@@H]1OC(=O)C(C)C)Oc1ccccc1 | > 23.2 µM |
| C[C@H](NP(=O)(OC[C@@]1(CF)O[C@@H](c2ccc3c(N)ncnn23)[C@H](O)[C@@H]1O)Oc1ccccc1)C(=O)OCC(C)(C)C (some centres unmarked) | > 25 µM |
| CCOCCOCCOC(=O)[C@H](C)NP(=O)(OC[C@@]1(CF)O[C@@H](c2ccc3c(N)ncnn23)[C@H](O)[C@@H]1O)Oc1ccccc1 (some centres unmarked) | > 25 µM |
| CCOC(=O)[C@H](C)NP(=O)(OC[C@@]1(CF)O[C@@H](c2ccc3c(N)ncnn23)[C@H](O)[C@@H]1O)Oc1cccc2ccccc12 (some centres unmarked) | 17.1 µM |

###

# Tested Target: DENV2 NS5 (Dengue virus type 2)
Reported IC50 values follow for various compounds

| Compound | Readout Unit | IC50 |
| --- | --- | --- |
| Nc1ncnn2c([C@@H]3O[C@](CCl)(COP(=O)(O)OP(=O)(O)OP(=O)(O)O)[C@@H](O)[C@H]3O)ccc12 [Comp. Ex. 2, reference compound] | µM | 7.09 |
| Nc1ncnn2c([C@@H]3O[C@](CF)(COP(=O)(O)OP(=O)(O)OP(=O)(O)O)[C@@H](O)[C@H]3O)ccc12 [Example 2, triphosphate] | µM | 0.737 |

###

CC50 at 48 h overview
# Assay Summary: Huh-7 CC50 (CellTiter Glo viability)
# Type: cell-based, Human
# Experimental Conditions: human, Huh7 hepatocarcinoma cells

| Compound | Readout Unit | Relation Qualifier | CC50 at 48 h |
| --- | --- | --- | --- |
| COC(C)(C)COC(=O)[C@H](C)NP(=O)(OC[C@@]1(CF)O[C@@H](c2ccc3c(N)ncnn23)[C@H](O)[C@@H]1O)Oc1ccccc1 (some centres unmarked) | µM | > | 25 |
| C[C@H](NP(=O)(OC[C@@]1(CF)O[C@@H](c2ccc3c(N)ncnn23)[C@H](O)[C@@H]1O)Oc1ccccc1)C(=O)OC1CCCCC1 (some centres unmarked) | µM | > | 25 |
| CCC(CC)COC(=O)[C@H](C)N[P@](=O)(OC[C@@]1(CF)O[C@@H](c2ccc3c(N)ncnn23)[C@H](OC(C)=O)[C@@H]1OC(C)=O)Oc1ccccc1 | µM | > | 24.8 |
| CCOC(=O)[C@H](C)NP(=O)(OC[C@@]1(CF)O[C@@H](c2ccc3c(N)ncnn23)[C@H](O)[C@@H]1O)Oc1ccc(C(C)(C)C)cc1 (mixture of isomers) | µM | = | 21.4 |
| C[C@H](NP(=O)(OC[C@@]1(CF)O[C@@H](c2ccc3c(N)ncnn23)[C@H](O)[C@@H]1O)Oc1ccccc1)C(=O)OCCC(C)(C)C (some centres unmarked) | µM | = | 17.8 |
| CCC(CC)COC(=O)[C@H](C)N[P@](=O)(OC[C@@]1(CF)O[C@@H](c2ccc3c(N)ncnn23)[C@H](OC(=O)C(C)C)[C@@H]1OC(=O)C(C)C)Oc1ccccc1 (single isomer, unassigned) | µM | = | 8.09 |
| CC(C)C(=O)O[C@H]1[C@H](c2ccc3c(N)ncnn23)O[C@](CF)(CO[P@@](=O)(N[C@@H](C)C(=O)OC2COC2)Oc2ccccc2)[C@H]1OC(=O)C(C)C (single isomer, unassigned) | µM | = | 9.34 |
| C[C@H](NP(=O)(OC[C@@]1(CF)O[C@@H](c2ccc3c(N)ncnn23)[C@H](O)[C@@H]1O)Oc1ccccc1)C(=O)OCC(C)(C)O (some centres unmarked) | µM | > | 25 |
| CCC(CC)COC(=O)[C@H](C)N[P@](=O)(OC[C@@]1(CF)O[C@@H](c2ccc3c(=N)n(COP(=O)(O)O)cnn23)[C@H](O)[C@@H]1O)Oc1ccccc1 (single isomer, unassigned) | µM | = | 6.47 |
| C[C@H](NP(=O)(OC[C@@]1(CF)O[C@@H](c2ccc3c(N)ncnn23)[C@H](O)[C@@H]1O)Oc1ccccc1)C(=O)OC1CCOCC1 (some centres unmarked) | µM | > | 25 |
| CC(C)OC(=O)[C@H](C)N[P@](=O)(OC[C@@]1(CF)O[C@@H](c2ccc3c(N)ncnn23)[C@H](O)[C@@H]1O)Oc1ccccc1 (single isomer, unassigned) | µM | > | 25 |

###

# System: RSV A2
# Assay Summary: RSV NHBE EC50 (RSV A2 antiviral assay in NHBE cells)
# Type: cell-based, RSV A2; normal human bronchial epithelial (NHBE) cells
# Experimental Conditions: human respiratory syncytial virus, 96 h; NHBE cells infected with RSV A2, 4 days, Cell-Titer Glo
pEC50: −log10 of the molar value.
Recorded measurements of pEC50, one per entry

| Compound | Relation Qualifier | pEC50 |
| --- | --- | --- |
| CCC(CC)COC(=O)[C@H](C)N[P@](=O)(OC[C@@]1(CF)O[C@@H](c2ccc3c(N)ncnn23)[C@H](O)[C@@H]1O)Oc1ccccc1 | = | 6.23 |
| Nc1ncnn2c([C@@H]3O[C@@](CO)(CF)[C@@H](O)[C@H]3O)ccc12 [Intermediate 5] | < | 5.32 |
| COC(=O)[C@H](C)NP(=O)(OC[C@@]1(CF)O[C@@H](c2ccc3c(N)ncnn23)[C@H](O)[C@@H]1O)Oc1ccccc1 (stereo partly shown) | = | 5.68 |
| COC(=O)[C@H](C)NP(=O)(OC[C@@]1(CF)O[C@@H](c2ccc3c(N)ncnn23)[C@H](OC(=O)C(C)C)[C@@H]1OC(=O)C(C)C)Oc1ccccc1 (single isomer, unassigned) | = | 6.44 |

###

We begin with a simple list: items and their reported CC50 at 4 days.
# Assay Summary: HEp-2 CC50 (cytotoxicity in uninfected HEp-2 cells)
# Type: cell-based
# Experimental Conditions: human, CellTiter Glo
Reported Endpoint: CC50 at 4 days

| Compound | Reported Measurement |
| --- | --- |
| C[C@H](NP(=O)(OC[C@@]1(CF)O[C@@H](c2ccc3c(N)ncnn23)[C@H](O)[C@@H]1O)Oc1ccccc1)C(=O)OC1CCCCC1 (stereo partly drawn) | > 100 µM |
| C[C@H](NP(=O)(OC[C@@]1(CF)O[C@@H](c2ccc3c(N)ncnn23)[C@H](O)[C@@H]1O)Oc1ccccc1)C(=O)O[C@@H]1CCN(C)C1 (stereo partly drawn) | > 100 µM |
| CCCCOCCOC(=O)[C@H](C)NP(=O)(OC[C@@]1(CF)O[C@@H](c2ccc3c(N)ncnn23)[C@H](O)[C@@H]1O)Oc1ccccc1 (stereo partly drawn) | > 100 µM |
| CO[C@H](C)COC(=O)[C@H](C)NP(=O)(OC[C@@]1(CF)O[C@@H](c2ccc3c(N)ncnn23)[C@H](O)[C@@H]1O)Oc1ccccc1 (stereo partly drawn) | > 100 µM |
| CCCC(CCC)COC(=O)[C@H](C)NP(=O)(OC[C@@]1(CF)O[C@@H](c2ccc3c(N)ncnn23)[C@H](O)[C@@H]1O)Oc1ccccc1 (stereo partly drawn) | > 100 µM |
| CCCCOC(=O)[C@H](C)N[P@](=O)(OC[C@@]1(CF)O[C@@H](c2ccc3c(N)ncnn23)[C@H](O)[C@@H]1O)Oc1ccccc1 (single isomer, unassigned) | 37.1 µM |
